tested on: UO-31; assay: NCI tumour cell line growth inhibition, 48 h
Active and inactive are the calls of the source. Cut-off read from the data, not from the text of the source: active = GI50 up to about 1.1 µM and inactive = higher.
measurementKind: GI50

Some molecules with known GI50 results, for comparison:
- molecule: "O=c1c(C(c2ccc3c(c2)Cc2ccccc2-3)c2c(O)oc3ccccc3c2=O)c(O)oc2ccccc12"
  GI50: "16.7 µM (inactive)"
- molecule: "COC(=O)C1(C(=O)OC)Cc2ccc(OC)cc2C2=C1C(=O)c1ccccc1C2=O"
  GI50: "3.69 µM (inactive)"
- molecule: "CCCN(CCC)c1c([N+](=O)[O-])cc(C(=O)N(C)C)cc1[N+](=O)[O-]"
  GI50: "92.9 µM (inactive)"
- molecule: "O=C(O)c1ccc(C2C(=O)N[C@@H]3CCC[C@H]23)cc1 (stereo partly specified)"
  GI50: "> 100 µM (inactive)"
- molecule: "CCc1n[nH]c(=O)n1/N=C(\\C)c1ccccc1"
  GI50: "> 100 µM (inactive)"

Would you kindly share the measured GI50 for `O=C([O-])C[n+]1ccccc1.c1ccncc1` ?
> 100 µM (inactive)

Would you kindly share the measured GI50 for CCOC(=O)CCC(NC(=O)c1ccc(OCc2ccc3nc(-c4ccccc4)c(Cl)nc3c2)cc1)C(=O)OCC (stereo unspecified) ?
> 31.6 µM (inactive)

Would you kindly share the measured GI50 for c1cncc(C2N3CCCCC3[C@@H]3c4[nH]c5ccccc5c4CCN23)c1 (stereo partly specified) ?
> 100 µM (inactive)

* * *

system: M14; test: NCI tumour cell line growth inhibition, 48 h
Active and inactive are the calls of the source. Rule as the data show it: active = GI50 up to about 1.1 µM and inactive = higher.
Answer with one of the outcomes given here: active, inactive

What did the test return for `Cc1ccc(-n2cc(-c3ccc(Cl)cc3)c3c(NN)ncnc32)cc1` ?
inactive

What did the test return for `COC(=O)CCN(CCC(=O)OC)C1CC1` ?
inactive

* * *

system: MCF7; assay: NCI tumour cell line growth inhibition, 48 h
The source made the active and inactive calls. No stated cut-off is given here; in the data, active = GI50 up to about 1.1 µM and inactive = higher.
# GI50 per record follows

Some compounds with known GI50 results, for comparison:
- compound: "O=[N+]([O-])/C(C(Cl)=C(Cl)Cl)=C(/Nc1ccccc1)Sc1ccccc1"
  measuredTarget: "MCF7"
  GI50: "28.5 µM (inactive)"
- compound: "COc1ccc(/C=N/n2c(Cc3ccccc3)n[nH]c2=O)cc1"
  measuredTarget: "MCF7"
  GI50: "> 100 µM (inactive)"
- compound: "CCNC(=S)NNC(=O)c1csc(NC(=S)NC2CCCCC2)n1"
  measuredTarget: "MCF7"
  GI50: "4.69 µM (inactive)"
- compound: "Cc1cc(C)c2c(n1)S(=O)(=O)N(CCCN1CCN(c3cccc(C(F)(F)F)c3)CC1)C(C(=O)c1ccccc1)=C2O"
  measuredTarget: "MCF7"
  GI50: "7.13 µM (inactive)"

Observed GI50 on MCF7 for COc1ccc2c(c1)C1c3ccccc3CCN1CCC2 (stereo not drawn) , please.
41.1 µM (inactive)

Observed GI50 on MCF7 for `C1#Cc2ccccc2OCCOc2ccccc2C#Cc2ccccc2OCCOc2ccccc21` , please.
> 100 µM (inactive)

* * *

test system: HOP-62; test: NCI tumour cell line growth inhibition, 48 h
Calls of active or inactive are those of the source. No stated cut-off is given here; in the data, active = GI50 up to about 1.1 µM and inactive = higher.
measurementKind: GI50

Some compounds with known GI50 results, for comparison:
- compound: "Oc1nc(-c2ccccc2)cc(-c2ccccc2O)n1"
  GI50: "30.5 µM (inactive)"
- compound: "CC(=O)n1nc(-c2ccc3ccccc3c2)nc1C"
  GI50: "39.5 µM (inactive)"
- compound: "Cc1nc2ccccc2c(=O)n1/N=C(\\N=N\\c1cc(Cl)ccc1Cl)c1ccc(N(C)C)cc1"
  GI50: "26.9 µM (inactive)"
- compound: "NC(N)=NCCC(O)(P(=O)(O)O)P(=O)(O)O"
  GI50: "> 100 µM (inactive)"
- compound: "CCCN(CCC)c1c([N+](=O)[O-])cc(S(N)(=O)=O)cc1[N+](=O)[O-] [ORYZALIN]"
  GI50: "17.2 µM (inactive)"
- compound: "N=C(N)N1CCC(N2CCOCC2)CC1"
  GI50: "> 100 µM (inactive)"
- compound: "C=CCN1/C(=C2\\SC(=S)N(c3ccc(C)cc3)C2=O)Sc2c1ncn(C)c2=O"
  GI50: "69.2 µM (inactive)"
- compound: "O=C(O)c1c(-c2nccc3ccccc23)[nH]c(-c2ccccc2)c1S(=O)(=O)O"
  GI50: "> 100 µM (inactive)"
- compound: "CCOC(=O)C1=C(C)NC(C)=C(C(=O)OCC)C1c1ccc(Cl)cc1"
  GI50: "14.8 µM (inactive)"
- compound: "CC1=NN(C(=O)c2ccc(Cl)cc2)C(=O)C1/N=N/c1ccc(S(=O)(=O)Nc2ncccn2)cc1 (configuration not stated)"
  GI50: "> 100 µM (inactive)"

Observed GI50 on HOP-62 for `O=C1c2cccc3cccc(c23)C(=O)N1CCCNOCCONCCCN1C(=O)c2cccc3cccc(c23)C1=O` , please.
62.1 µM (inactive)

Observed GI50 on HOP-62 for `NC(=S)N/N=C1\C(=O)Nc2c(Cl)cc(Cl)cc21` , please.
13 µM (inactive)
